Provenance of the data: patent US8916575B2

- Tgt: human TLR7 (Homo sapiens)
- Construct: expressed in transfected cells; host or cells: HEK293
- Sequence (Q9NYK1 27-1049): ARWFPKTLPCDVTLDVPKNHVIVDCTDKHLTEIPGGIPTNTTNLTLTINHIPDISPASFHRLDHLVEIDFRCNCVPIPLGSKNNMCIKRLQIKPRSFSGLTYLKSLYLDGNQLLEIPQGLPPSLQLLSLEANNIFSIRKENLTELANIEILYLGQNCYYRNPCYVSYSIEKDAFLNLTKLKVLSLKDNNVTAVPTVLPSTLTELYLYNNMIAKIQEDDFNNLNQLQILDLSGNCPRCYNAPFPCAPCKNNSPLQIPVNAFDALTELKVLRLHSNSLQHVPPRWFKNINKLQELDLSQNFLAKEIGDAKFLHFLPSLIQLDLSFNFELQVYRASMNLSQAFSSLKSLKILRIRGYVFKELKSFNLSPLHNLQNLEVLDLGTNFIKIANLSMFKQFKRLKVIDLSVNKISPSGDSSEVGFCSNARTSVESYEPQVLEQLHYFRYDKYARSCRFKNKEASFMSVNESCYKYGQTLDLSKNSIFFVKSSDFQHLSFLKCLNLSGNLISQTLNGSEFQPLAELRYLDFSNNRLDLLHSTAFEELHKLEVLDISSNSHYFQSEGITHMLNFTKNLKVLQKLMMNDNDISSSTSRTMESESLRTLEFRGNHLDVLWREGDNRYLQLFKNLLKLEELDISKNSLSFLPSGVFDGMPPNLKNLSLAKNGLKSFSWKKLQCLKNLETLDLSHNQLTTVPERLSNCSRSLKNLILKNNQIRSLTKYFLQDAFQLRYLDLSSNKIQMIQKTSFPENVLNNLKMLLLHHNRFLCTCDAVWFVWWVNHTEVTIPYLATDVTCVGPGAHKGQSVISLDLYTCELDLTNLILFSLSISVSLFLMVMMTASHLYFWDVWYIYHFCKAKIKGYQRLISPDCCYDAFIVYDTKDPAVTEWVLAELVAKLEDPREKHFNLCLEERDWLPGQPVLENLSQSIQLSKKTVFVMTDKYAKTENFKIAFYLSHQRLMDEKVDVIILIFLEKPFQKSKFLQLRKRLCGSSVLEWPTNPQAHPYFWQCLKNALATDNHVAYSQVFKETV
- Test: TLR7 wild type NFκB-luc cellular reporter assay
- Format: cell-based
- Parameters: unit not given here
- Setup conditions: HEK293 NFκB-luc reporter, 6 hours incubation; second part of table
Reported metric: TLR7-wt (LEC)
Answer using only a numeral; do not append any unit.

Smiles str	TLR7-wt (LEC)
CCCCNc1nc(N)nc2cccc(CCc3ccccc3)c12	0.13
CCC[C@@H](CO)Nc1nc(N)nc2ccc(CO)cc12	10.77
CCC[C@@H](CO)Nc1nc(N)nc2cccc(Cl)c12	1.02

Here is another compound to look at.
# get_value(readout='TLR7-wt (LEC)', item= "CCC[C@@H](CCO)Nc1nc(N)nc2cc(C)ccc12" )
0.06

====

- System: interferon-stimulated responsive elements (ISRE)
- Test: Activation of ISRE promoter elements by conditioned media from PBMC (HEK-ISREluc)
- Assay type: cell-based, human
- Design: unit not given here
- Setup conditions: compound applied to PBMCs, supernatant transferred to HEK-ISREluc cells, 24 hours
Reported metric: HEK-ISRE luc (LEC)

Smiles str	Tgt	HEK-ISRE luc (LEC)
CCCC[C@@H](CCO)Nc1nc(N)nc2ccc(OC)cc12	interferon-stimulated responsive elements (ISRE)	0.88
CCCCCNc1nc(N)nc2ccc(Br)cc12	interferon-stimulated responsive elements (ISRE)	0.57
CCC[C@@H](CCO)Nc1nc(N)nc2ccc(F)cc12	interferon-stimulated responsive elements (ISRE)	0.56
CCCC[C@@H](CCO)Nc1nc(N)nc2cc(OC)ccc12	interferon-stimulated responsive elements (ISRE)	0.04
CCCCNc1nc(N)nc2cc(C(=O)OC)ccc12	interferon-stimulated responsive elements (ISRE)	0.75
CCC[C@@H](CO)Nc1nc(N)nc2cc(F)ccc12	interferon-stimulated responsive elements (ISRE)	0.02

Here is another compound to look at.
# get_value(readout='HEK-ISRE luc (LEC)', item= "CCC[C@@H](CCO)Nc1nc(N)nc2c(F)cccc12" )
0.04

====

- Tgt: human TLR8 (Homo sapiens)
- Construct: expressed in transfected cells; host or cells: HEK293
- Sequence (Q9NR97 27-1041): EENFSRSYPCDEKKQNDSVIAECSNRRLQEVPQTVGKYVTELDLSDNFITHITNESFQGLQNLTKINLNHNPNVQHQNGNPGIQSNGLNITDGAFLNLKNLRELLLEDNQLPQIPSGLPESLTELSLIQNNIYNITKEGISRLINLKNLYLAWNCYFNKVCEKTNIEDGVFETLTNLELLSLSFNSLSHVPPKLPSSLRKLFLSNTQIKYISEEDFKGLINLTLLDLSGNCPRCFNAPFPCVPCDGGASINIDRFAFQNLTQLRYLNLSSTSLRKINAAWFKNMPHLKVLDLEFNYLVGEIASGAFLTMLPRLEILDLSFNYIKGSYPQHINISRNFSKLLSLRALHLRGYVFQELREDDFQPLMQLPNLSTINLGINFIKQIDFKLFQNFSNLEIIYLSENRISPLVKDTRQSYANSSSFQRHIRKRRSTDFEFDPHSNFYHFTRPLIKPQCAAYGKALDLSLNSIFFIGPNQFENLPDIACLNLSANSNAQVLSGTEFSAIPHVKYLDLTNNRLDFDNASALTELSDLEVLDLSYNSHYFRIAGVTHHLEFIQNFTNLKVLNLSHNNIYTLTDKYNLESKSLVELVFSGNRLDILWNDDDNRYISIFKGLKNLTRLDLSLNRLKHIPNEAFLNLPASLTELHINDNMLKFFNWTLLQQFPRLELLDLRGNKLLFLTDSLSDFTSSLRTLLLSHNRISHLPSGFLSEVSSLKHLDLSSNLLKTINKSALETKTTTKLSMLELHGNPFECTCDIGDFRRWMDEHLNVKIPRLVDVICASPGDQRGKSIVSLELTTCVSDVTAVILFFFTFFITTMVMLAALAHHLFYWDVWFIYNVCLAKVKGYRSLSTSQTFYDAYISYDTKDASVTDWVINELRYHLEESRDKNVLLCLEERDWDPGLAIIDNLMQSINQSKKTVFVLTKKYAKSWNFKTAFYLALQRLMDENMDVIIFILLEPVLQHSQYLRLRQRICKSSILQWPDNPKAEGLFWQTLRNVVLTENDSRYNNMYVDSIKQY
- Test: TLR8 wild type NFκB-luc cellular reporter assay
- Type: cell-based
- Set-up: unit not given here
- Setup conditions: HEK293 NFκB-luc reporter, 6 hours incubation; second part of table
Reported metric: TLR8-wt (LEC)
Answer using only a numeral; do not append any unit.

# get_value(readout='TLR8-wt (LEC)', item= "C#CCOc1cccc2nc(N)nc(NCCCC)c12" )
0.10

Likewise for CCCCNc1nc(N)nc2ccc(C(C)O)cc12 (stereo not shown) ?
5.05

Likewise for "CCC[C@@H](CCO)Nc1nc(N)nc2cccc(F)c12" ?
0.02

Likewise for "CCC[C@@H](CO)Nc1nc(N)nc2cc(C)ccc12" ?
0.03

Likewise for "CCCC[C@@H](CCO)Nc1nc(N)nc2cc(C)ccc12" ?
0.06

Likewise for "CCC[C@@H](CO)Nc1nc(N)nc2cc(C(=O)OC)ccc12" ?
0.22

Likewise for "CCCCNc1nc(N)nc2ccc(-n3cnc(C)c3)cc12" ?
2.55

Likewise for "CCC[C@@H](CO)Nc1nc(N)nc2cccc(OC)c12" ?
0.03

Likewise for "CCCCNc1nc(N)nc2ccc(OC)cc12" ?
1.83

Likewise for "CCC[C@@H](CO)Nc1nc(N)nc2cccc(Cl)c12" ?
0.01

====

- Test system: interferon-stimulated responsive elements (ISRE)
- Test: Activation of ISRE promoter elements by conditioned media from PBMC (HEK-ISREluc)
- Format: cell-based, human
- Set-up: unit not given here
- Setup conditions: compound applied to PBMCs, supernatant transferred to HEK-ISREluc cells, 24 hours
# HEK-ISRE luc (LEC) annotations
Answer using only a numeral; do not append any unit.

For orientation, consider the following solved cases.
Compound	Tgt	Reported metric	Result
CCC[C@@H](CO)Nc1nc(N)nc2cc(C(=O)OC)ccc12 [Compound 86]	interferon-stimulated responsive elements (ISRE)	HEK-ISRE luc (LEC)	0.28
CCCC[C@@H](CCO)Nc1nc(N)nc2ccc(F)cc12 [Compound 83]	interferon-stimulated responsive elements (ISRE)	HEK-ISRE luc (LEC)	0.37
CCC[C@@H](CCO)Nc1nc(N)nc2ccc(C)cc12 [Compound 54]	interferon-stimulated responsive elements (ISRE)	HEK-ISRE luc (LEC)	0.18
CCCC[C@@H](CO)Nc1nc(N)nc2ccc(C)cc12 [Compound 51]	interferon-stimulated responsive elements (ISRE)	HEK-ISRE luc (LEC)	0.09
CCCCNc1nc(N)nc2c(F)cccc12 [Compound 37]	interferon-stimulated responsive elements (ISRE)	HEK-ISRE luc (LEC)	0.07

# get_value(readout='HEK-ISRE luc (LEC)', item= CCCCNc1nc(N)nc2ccc(Br)cc12 [Compound 85] )
0.21

Likewise for CCC[C@@H](CO)Nc1nc(N)nc2ccc(C)cc12 [Compound 45] ?
0.04

Likewise for CCC[C@@H](CO)Nc1nc(N)nc2cc(CO)ccc12 [Compound 33] ?
0.14

Likewise for CCCCNc1nc(N)nc2cccc(Cl)c12 [Compound 41] ?
0.17

====

- Tgt: human TLR7 (Homo sapiens, UniProt Q9NYK1)
- Construct: expressed in transfected cells; host or cells: HEK293
- Test: TLR7 wild type NFκB-luc cellular reporter assay
- Assay type: cell-based
- Set-up: unit not given here
- Setup conditions: HEK293 NFκB-luc reporter, 6 hours incubation; second part of table
Reported metric: TLR7-wt (LEC)
Answer using only a numeral; do not append any unit.

Compound	Tgt	TLR7-wt (LEC)
CCC[C@@H](CO)Nc1nc(N)nc2cc(OC)ccc12	human TLR7 (Homo sapiens, UniProt Q9NYK1)	0.39
CCCCNc1nc(N)nc2cc(C(=O)NCc3ccccn3)ccc12	human TLR7 (Homo sapiens, UniProt Q9NYK1)	0.77
CCCC[C@@H](CO)Nc1nc(N)nc2cc(OC)ccc12	human TLR7 (Homo sapiens, UniProt Q9NYK1)	0.26

Here is another compound to look at.
Param readout = TLR7-wt (LEC); param system = human TLR7 (Homo sapiens, UniProt Q9NYK1); param query = "CCCC[C@@H](CO)Nc1nc(N)nc2ccc(OC)cc12" ; response: value
3.48

====

# TLR7-wt (LEC) annotations
- Tgt: human TLR7 (Homo sapiens)
- Construct: expressed in transfected cells; host or cells: HEK293
- Sequence (Q9NYK1 27-1049): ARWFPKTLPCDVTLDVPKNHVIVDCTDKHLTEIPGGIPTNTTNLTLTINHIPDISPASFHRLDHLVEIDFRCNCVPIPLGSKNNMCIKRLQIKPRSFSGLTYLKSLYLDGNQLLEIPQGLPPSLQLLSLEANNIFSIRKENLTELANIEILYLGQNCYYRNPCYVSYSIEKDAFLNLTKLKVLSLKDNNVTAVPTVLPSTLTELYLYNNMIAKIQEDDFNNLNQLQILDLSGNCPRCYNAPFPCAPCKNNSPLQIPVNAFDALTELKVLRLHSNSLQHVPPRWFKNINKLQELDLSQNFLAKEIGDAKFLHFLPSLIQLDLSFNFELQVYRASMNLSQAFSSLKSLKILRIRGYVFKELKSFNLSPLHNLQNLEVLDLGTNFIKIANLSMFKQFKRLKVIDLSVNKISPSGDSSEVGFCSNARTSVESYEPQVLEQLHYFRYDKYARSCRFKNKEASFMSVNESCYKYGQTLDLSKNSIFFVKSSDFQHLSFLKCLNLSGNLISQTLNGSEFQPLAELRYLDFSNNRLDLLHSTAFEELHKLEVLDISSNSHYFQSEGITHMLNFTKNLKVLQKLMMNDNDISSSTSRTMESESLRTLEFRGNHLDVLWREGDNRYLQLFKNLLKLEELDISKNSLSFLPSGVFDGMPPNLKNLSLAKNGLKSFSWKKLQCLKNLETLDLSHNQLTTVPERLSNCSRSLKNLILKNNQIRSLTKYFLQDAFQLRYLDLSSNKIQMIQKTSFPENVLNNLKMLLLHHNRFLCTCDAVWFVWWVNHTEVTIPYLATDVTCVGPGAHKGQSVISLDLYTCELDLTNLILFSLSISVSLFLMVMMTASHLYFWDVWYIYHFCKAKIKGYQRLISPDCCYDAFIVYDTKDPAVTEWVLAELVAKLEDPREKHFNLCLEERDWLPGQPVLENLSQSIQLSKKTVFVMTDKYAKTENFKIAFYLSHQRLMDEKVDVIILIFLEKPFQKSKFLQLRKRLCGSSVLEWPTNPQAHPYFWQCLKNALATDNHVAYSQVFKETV
- Test: TLR7 wild type NFκB-luc cellular reporter assay
- Assay type: cell-based
- Parameters: unit not given here
- Setup conditions: HEK293 NFκB-luc reporter, 6 hours incubation; second part of table
Answer using only a numeral; do not append any unit.

Smiles str	Tgt	Result
CCCC[C@@H](CCO)Nc1nc(N)nc2ccc(OC)cc12	human TLR7 (Homo sapiens)	1.85

# get_value(readout='TLR7-wt (LEC)', item= "CCC[C@@H](CO)Nc1nc(N)nc2c(C)cccc12" )
4.54

Likewise for "CCC[C@@H](CO)Nc1nc(N)nc2cc(F)c(F)cc12" ?
2.59

Likewise for "CCC[C@@H](CO)Nc1nc(N)nc2cccc(F)c12" ?
0.32
